Test: small-molecule microarray binders of probe aDKK1, primary screen, biochemical, biotinylated probe, 635/667 nm fluorescence (AID 1099);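 note: score merges 667nm spot fluorescence with signal to noise across triplicate slides; reference of the scale not given here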
Details: higher = more signal
Hi all, reminder that labels come from composite z-score, split as category 1: < -0.04; category 2: ≥ -0.04 and < 0.7; category 3: ≥ 0.7

For orientation, consider the following solved cases.
[N-]=[N+]=NCc1ccccc1[C@@H]1OC(c2ccc(OCCCO)cc2)=N[C@]1(Cc1ccccc1)C(N)=O; category 3
C=C(CCCC)C(=O)CC[C@@H](OC(=O)c1ccccc1-c1ccccc1C(=O)O)c1ccc(OCCO)cc1; category 2
O=C1C[C@@](C(=O)NC2CC2)(c2ccc([N+](=O)[O-])cc2)[C@@H](c2ccc(CO)cc2I)N1C1CCCCC1; category 2

Record CCc1cccc(NC(=O)O[C@H]2[C@H](OC(=O)Nc3ccccc3-c3ccccc3)[C@@H](OC(=O)Nc3ccccc3-c3ccccc3)[C@@H](OC)O[C@@H]2CO)c1 — which class? category 2

Record CCC(CC)C(O)C1C=CC2C(=O)NC(=O)C2N1Nc1ccc(Cl)cc1Cl (configuration not stated) — which class? category 3

Record C=C(C(=O)CC[C@@H](OC(=O)c1cccnc1)c1ccccc1OCCO)C(C)C — which class? category 1

Record C=CCOC(=O)[C@@H]1[C@H]2C(=O)O[C@H](c3ccccc3)[C@H](c3ccccc3)N2[C@H](c2ccc(OCCOC(=O)[C@@H]3C[C@@H]4C(=O)NCC(=O)N4[C@@H]3c3ccc(O)cc3)cc2)[C@@]12C(=O)Nc1ccc(I)cc12 — which class? category 1

Record NC(=O)[C@@H]1[C@H]2C(=O)O[C@H](c3ccccc3)[C@H](c3ccccc3)N2[C@H](c2ccc(O)cc2)[C@@]12C(=O)Nc1ccccc12 — which class? category 1

###

Assay: Plasmodium falciparum growth inhibition, primary screen, strain 3D7, DAPI fluorescence, 100 nL (AID 1184);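 note: parasites grown inside human red blood cells in medium with human serum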
Settings: P. falciparum 3D7 growth, 3 d, higher = more signal
Property: z-score
One number for each entry.

[N-]=[N+]=Nc1ccccc1[C@H]1OC(c2ccc(OCCCO)cc2)=N[C@@]1(CCS(=O)(=O)c1ccccc1)C(N)=O; -1.42
COCCOC(=O)N1C(=O)[C@@]2(c3cc(C#CCC(C(=O)OC)C(=O)OC)ccc31)[C@H](c1ccccc1OCCO)N1[C@H](c3ccccc3)[C@H](c3ccccc3)OC(=O)[C@H]1[C@@H]2C(=O)N1CCN(c2ncccn2)CC1; -2.25
C=CCNC(=O)[C@@H]1[C@H]2C(=O)O[C@H](c3ccccc3)[C@H](c3ccccc3)N2[C@H](c2ccc(OCCO)cc2)[C@@]12C(=O)Nc1ccc(C#CCC(C(=O)OC)C(=O)OC)cc12; -2.22

Switching to the query record.
Kindly indicate its recorded z-score. Item: CNS(=O)(=O)c1ccc(C)cc1 0.749

###

Biological target: Homeobox protein Hox-A13 (Mus musculus) (UniProt Q62424)
Sequence (Q62424 whole entry, looked up): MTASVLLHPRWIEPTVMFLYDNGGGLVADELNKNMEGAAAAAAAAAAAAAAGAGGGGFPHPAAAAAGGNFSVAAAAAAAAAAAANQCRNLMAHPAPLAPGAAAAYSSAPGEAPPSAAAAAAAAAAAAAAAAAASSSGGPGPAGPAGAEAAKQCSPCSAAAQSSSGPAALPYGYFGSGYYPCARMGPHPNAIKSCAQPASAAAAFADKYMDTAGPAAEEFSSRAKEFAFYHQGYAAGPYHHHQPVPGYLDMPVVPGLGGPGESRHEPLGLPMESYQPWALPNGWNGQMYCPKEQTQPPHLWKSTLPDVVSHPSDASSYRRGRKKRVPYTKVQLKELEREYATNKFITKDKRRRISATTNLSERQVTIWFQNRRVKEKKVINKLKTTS
Assay: inhibitors of HoxA13-DNA binding, primary screen, biochemical, fluorescence polarization, labeled oligonucleotide (AID 1185)
Settings: 15 min, higher = more signal, called active from +8 up or from −8 down
Tick t if z-score is -4 or greater. Tick f if z-score is less than -4.

For orientation, consider the following solved cases.
COC(=O)c1c(CC[C@@H](CO)NC(=O)NCCn2cc(C3(O)CCCC3)nn2)oc(C(C)=O)c1C(=O)OC; t
C=CCNC(=O)[C@@H]1[C@H]2C(=O)O[C@H](c3ccccc3)[C@H](c3ccccc3)N2[C@H](c2ccccc2OCCO)[C@@]12C(=O)N(C(=O)OCCOC)c1ccccc12; f
CCCC#C[Si](O[C@H](CC)c1cn(Cc2cccc(Cl)c2)nn1)(C(C)C)C(C)C; t

Entry COCCOC(=O)N1C(=O)[C@@]2(c3cc(C#Cc4ccc(OC)cc4)ccc31)[C@H](c1ccccc1OCCO)N1[C@H](c3ccccc3)[C@H](c3ccccc3)OC(=O)[C@H]1[C@@H]2C(=O)NC[C@H](O)c1ccccc1 : is its z-score no less than -4? t

Entry CCCCC(CC)C(O)C1C=CC2C(=O)N(Cc3ccccc3)C(=O)C2N1n1cnnc1 (stereo not given) : is its z-score no less than -4? t

###

Target: Epidermal growth factor receptor (Homo sapiens) (UniProt P00533)
Sequence (P00533 whole entry, looked up): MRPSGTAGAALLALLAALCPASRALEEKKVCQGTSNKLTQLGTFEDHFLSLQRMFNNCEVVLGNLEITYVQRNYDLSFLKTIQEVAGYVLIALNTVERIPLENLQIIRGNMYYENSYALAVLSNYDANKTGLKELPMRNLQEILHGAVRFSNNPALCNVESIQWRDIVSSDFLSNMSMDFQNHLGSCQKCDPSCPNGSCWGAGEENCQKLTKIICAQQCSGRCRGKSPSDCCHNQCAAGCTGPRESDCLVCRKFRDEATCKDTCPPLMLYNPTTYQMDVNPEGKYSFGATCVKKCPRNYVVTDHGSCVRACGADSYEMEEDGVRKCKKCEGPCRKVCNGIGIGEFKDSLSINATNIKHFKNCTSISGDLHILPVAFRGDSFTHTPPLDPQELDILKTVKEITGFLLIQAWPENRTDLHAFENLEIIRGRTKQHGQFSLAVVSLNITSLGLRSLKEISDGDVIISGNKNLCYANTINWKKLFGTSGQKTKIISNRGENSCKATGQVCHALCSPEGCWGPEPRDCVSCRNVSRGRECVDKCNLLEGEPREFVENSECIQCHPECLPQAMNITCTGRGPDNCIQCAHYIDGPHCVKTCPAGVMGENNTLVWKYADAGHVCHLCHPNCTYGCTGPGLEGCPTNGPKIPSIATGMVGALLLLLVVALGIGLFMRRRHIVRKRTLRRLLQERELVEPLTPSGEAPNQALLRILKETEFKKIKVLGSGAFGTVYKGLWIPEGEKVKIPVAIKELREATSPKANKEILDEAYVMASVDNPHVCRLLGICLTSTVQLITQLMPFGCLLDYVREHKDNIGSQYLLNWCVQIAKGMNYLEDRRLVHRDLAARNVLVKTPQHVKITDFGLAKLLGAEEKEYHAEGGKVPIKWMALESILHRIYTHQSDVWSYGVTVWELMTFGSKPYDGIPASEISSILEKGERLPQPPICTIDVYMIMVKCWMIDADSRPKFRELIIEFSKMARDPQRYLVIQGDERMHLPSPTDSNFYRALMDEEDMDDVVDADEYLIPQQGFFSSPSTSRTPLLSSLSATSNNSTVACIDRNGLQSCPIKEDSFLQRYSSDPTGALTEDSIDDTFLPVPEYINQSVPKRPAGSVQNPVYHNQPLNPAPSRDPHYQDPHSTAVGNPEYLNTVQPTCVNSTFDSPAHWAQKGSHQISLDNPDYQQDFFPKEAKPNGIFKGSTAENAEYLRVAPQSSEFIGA
Assay: EGFR binders on small-molecule microarrays, primary screen, biochemical, small-molecule microarray, 635 nm fluorescence (AID 1104);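 note: score merges 667 nm emission intensity with spot signal to noise over triplicate slides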
Details: EGFR binding, higher = more signal
Property: composite z-score

Consider the worked cases shown below.
COc1ccccc1CN1C(=O)c2ccccc2[C@@]2(Cc3ccccc3N(CC(C)C)C2=O)[C@@H]1c1ccc(CO)cc1; -0.284
O=C1[C@@]23C=C(Br)[C@H](C[C@@H]2CCOC3)[C@@]12CO2; 0.442
C=CCC(OC(C)=O)[C@@H]1[C@@H](N(Cc2ccc(-c3ccccc3)cc2)C(=O)Cc2ccc(OC)cc2)c2cc(OCCCO)ccc2N1C(=O)Cc1ccc2ccccc2c1 (some centres not stated); -0.163
C=C(COC)/C(=C/C[C@@H](OC(=O)c1ccncc1)c1ccc(CO)o1)c1cc(C(=O)OC)ccc1OC; 1.06
CC(C)NC(=O)[C@@]1(c2ccc([N+](=O)[O-])cc2)CC(=O)N(C2CCCCC2)[C@@H]1c1ccc(CO)cc1I; -0.527

Record composite z-score for all entries; do not skip any.
1. CCCc1cc2c(n1Cc1cc(F)cc(F)c1)C(C)C1CN(C(=O)c3ccccc3)C(C)(C(=O)OC)C21 (configuration not stated)
2. COC(=O)[C@@]1(Cc2ccc(OC)cc2)[C@H]2c3cc(C(=O)N(C)C)n(Cc4ccc(S(C)(=O)=O)cc4)c3C[C@H]2CN1C(=O)c1ccccc1

0.0159
-0.0743

###

Assay: binders of probe aFGF10 on microarray, primary screen, stem cell growth factor project, biochemical, small-molecule microarray, fluorescence 635/667 (AID 1071);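 note: score merges 667 nm spot intensity and signal to noise from triplicate slides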
Conditions: higher = more signal
Tick satisfied if composite z-score is 0.3 or greater. Tick not satisfied if composite z-score is less than 0.3.

For orientation, consider the following solved cases.
CCCCCCc1nc(-c2ccc(OC)nc2)cc2c1[Si](C(C)C)(C(C)C)O[C@H]2c1ccccc1; not satisfied
COC(=O)[C@@]1(Cc2ccc(OC)cc2)[C@H]2c3cc(C(=O)N(C)C)n(CCc4ccccn4)c3C[C@H]2CN1C(=O)c1ccccc1; satisfied
COCCOC(=O)N1C(=O)[C@@]2(c3cc(C#CCCO)ccc31)[C@H](C(=O)N1CCCCCCC1)[C@H]1C(=O)O[C@H](c3ccccc3)[C@H](c3ccccc3)N1[C@@H]2c1ccc(OCCO)cc1; satisfied
COC(=O)[C@@]1(Cc2ccc(OC)cc2)[C@H]2c3cc(C(=O)N4CCCC4)n(CCN4CNCC4=O)c3C[C@H]2CN1C(=O)c1ccccc1; satisfied
CC(C)(C)OC(=O)CC[C@]1(C(=O)N2CCOCC2)N=C(c2ccc(OCCCO)cc2)O[C@H]1c1ccccc1N=[N+]=[N-]; satisfied
CCC(CC)C(O)C1C=CC2C(=O)NC(=O)C2N1Nc1ccc(Cl)cc1Cl (centres undefined); satisfied
C=C(CCCC)/C(=C/C[C@@H](OC(=O)c1ccncc1)c1ccc(OCCO)cc1)c1cc(C(=O)OC)ccc1OC; satisfied
O=C1N(Cc2ccccc2)c2ccccc2[C@@H]2OC(c3ccc(OCCCO)cc3)=N[C@]12CCS(=O)(=O)c1ccccc1; not satisfied

Entry C=CCOC(=O)[C@H]1[C@@H]2C(=O)O[C@@H](c3ccccc3)[C@@H](c3ccccc3)N2[C@@H](c2ccc(OCCOC(=O)[C@H]3C[C@H]4C(=O)N[C@@H](CCCCN(C)C)C(=O)N4[C@H]3c3ccc(O)cc3)cc2)[C@]12C(=O)Nc1ccc(I)cc12 : is its composite z-score no less than 0.3? satisfied

Entry O=C1OCCC/C=C\[C@H]2OC34C=CCN(Cc5ccccc5)C(=O)[C@H]3N(CCCO)C(=O)[C@@H]4C12 (some centres undefined) : is its composite z-score no less than 0.3? not satisfied

Entry Cc1nc2cc(Br)ccc2c(=O)o1 : is its composite z-score no less than 0.3? satisfied

Entry C=CCC(OC(C)=O)[C@@H]1[C@@H](N(Cc2ccc(-c3ccccc3)cc2)C(=O)c2cccc3ccccc23)c2cc(OCCCO)ccc2N1C(=O)c1ccc(-c2ccccc2)cc1 (some centres undefined) : is its composite z-score no less than 0.3? not satisfied

Entry CCOC(=O)C[C@H]1[C@H](OC(=O)c2ccc(-c3ccccc3)cc2)[C@@H](NC(=O)Cc2ccc(OC)cc2)c2cc(OCCCO)ccc2N1C(=O)c1ccccc1 : is its composite z-score no less than 0.3? not satisfied

Entry CN1C(=O)C2C=CC(C(O)C#Cc3ccccc3)N(N3CCCCC3)C2C1=O (centres undefined) : is its composite z-score no less than 0.3? satisfied

Entry COc1cccc(-c2cccc(=O)o2)c1 : is its composite z-score no less than 0.3? not satisfied

Entry [N-]=[N+]=NCc1ccccc1[C@@H]1OC(c2ccc(OCCCO)cc2)=N[C@]1(Cc1ccccc1)C(N)=O : is its composite z-score no less than 0.3? satisfied

Entry CC(CO)N1C(=O)[C@@H]2C3C(=O)OCCC/C=C\[C@H]3OC23C=CCN(C(C)(C)C)C(=O)[C@@H]13 (some centres undefined) : is its composite z-score no less than 0.3? not satisfied

Entry C=C(C)[C@@H]1CC=C(C(O)C2C=CC3C(=O)N(c4ccccc4)C(=O)C3N2Nc2ccccc2)CC1 (some centres undefined) : is its composite z-score no less than 0.3? satisfied

Entry CC(C)C[C@@H]1NC(=O)[C@@H]2C[C@H](C(=O)O)[C@H](c3cccc(OCCO)c3)N2C1=O : is its composite z-score no less than 0.3? not satisfied
